# tested_target: T1, human PVRIG-his (AcroBiosystems, Cat NO. PVG-H52H4) (human, UniProt Q6DKI7 41-171, limits assumed)
# T1 construct: also called human PVRIG protein
# T1 sequence (looked up): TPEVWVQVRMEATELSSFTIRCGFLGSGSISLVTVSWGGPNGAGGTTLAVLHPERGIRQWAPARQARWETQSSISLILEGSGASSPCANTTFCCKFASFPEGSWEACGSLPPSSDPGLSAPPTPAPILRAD
# procedure_text: SPR (BIAcore), antibody captured on Protein A chip, human PVRIG-His analyte
Provide the recorded kon for the entries that follow.
Give bare numbers, in M⁻¹ s⁻¹.

Answered examples (2):
Input line: Identify the reported kon for the following entry. PVRIG-A30 (Fc fusion, heavy chain antibody VHH-hinge-CH2-CH3, human IgG1 constant part; not shown: human IgG1 hinge-CH2-CH3) QVQLVESGGGLVQPGGSLRLSCAASGRTDSMNVMGWFRRAPGKEREFVARIKWNGDTTYTAYADFLKGRFTLYGAVARNRVYLQMNSLQPEDTAVYYCAAGEVSGSSYSPDYGMHYWGKGTLVTVSS
Output line: 157000

Input line: Identify the reported kon for the following entry. COM701-hIgG1 (antibody, V domains shown, positive control; human IgG1 format) VH: QVQLVQSGAEVKKPGASVKVSCKASGYTFTDYNINWVRQAPGQGLEWMGYIYPYIGGSGYAQKFQGRVTMTRDTSTSTVYMELSSLRSEDTAVYYCAREDKTARNAMDYWGQGTLVTVSS VL: DIQMTQSPSSLSASVGDRVTITCRVSENIYSNLAWYQQKPGKAPKLLIYEATNLAEGVPSRFSGSGSGTDFTLTISSLQPEDFATYYCQHFWGTPYTFGQGTKLEIK
Output line: 2.04e+06

State the recorded kon for every item in the following list.
1. PVRIG-A75 (Fc fusion, heavy chain antibody VHH-hinge-CH2-CH3, human IgG1 constant part; not shown: human IgG1 hinge-CH2-CH3) QLQLVESGGGLVQSGGSLRLSCAASGRTRSMYVMGWFRQAPGKEREFVGRIKWSGDTTYTSYADFVKGRFTLYGNQARNTVYLQMNSLKPEDTAVYSCAASKFPVSGVPEHYDYWGQGTQVTVSS
2. PVRIG-A104 (Fc fusion, heavy chain antibody VHH-hinge-CH2-CH3, human IgG1 constant part; not shown: human IgG1 hinge-CH2-CH3) EVQVVESGGGLVQAGGSLRLSCAASGRTRSMYVMGWFRQAPGKEREFVGRIKWSGDTTYTSYADFVKGRFTLYGNQARNTVYLQMNSLKPEDTAVYYCYRRSWTNTKLYWGKGIQVTVSS

Output line:
1. 107000
2. 154000

State the recorded kon for every item in the following list.
1. PVRIG-A117 (Fc fusion, heavy chain antibody VHH-hinge-CH2-CH3, human IgG1 constant part; not shown: human IgG1 hinge-CH2-CH3) EVQVVESGGGLVQAGGSLRLSCTASEHIYDLYIMGWYRQAPGKDRELVATITYTGSIYIADSVKDRFTISRGNAKNTVSLQMSGLKPEDTAVYYCNADPSGLGRKLYWGQGTQVTVSS
2. PVRIG-A105 (Fc fusion, heavy chain antibody VHH-hinge-CH2-CH3, human IgG1 constant part; not shown: human IgG1 hinge-CH2-CH3) EVQLVESGGGLVQAGGSLRLSCAASGRTFDRHTMTWFRQAPGKEREFVATASRIPGDTYYSHSVKGRFTISRDNAKNTVYLQLNNLKPEDTAVYYCAATSAYCSEVDCYEKGSWYDNWGQGIQVTVSS

Output line:
["3.74e+06", 527000]

Input line: Identify the reported kon for the following entry. PVRIG-A43 (Fc fusion, heavy chain antibody VHH-hinge-CH2-CH3, human IgG1 constant part; not shown: human IgG1 hinge-CH2-CH3) QVQLVESGGGLVQSGGSLRLSCAASGRTRSMYVMGWFRQAPGKEREFVGRIKWSGDTTYTSYADFVKGRFTLYGNQARNTVYLQMNSLKVEDTAVYYCAGRVVPLPSRQRDRYDYWGQGTQVTVSS
Output line: 23400
